Listed below: % ZIKV NS2B/NS3pro Inhibition (100 µM) 0.01% Triton values for each entry.
systemUnderTest: ZIKV NS2B-NS3pro (Zika virus, UniProt A0A024B7W1, C1582S/C1645S/R1467A/R1531G)
measurementDescription: ZIKV NS2B-NS3pro inhibitory assay with fluorogenic substrate Bz-Nle-Lys-Lys-Arg-AMC
Type: biochemical
conditionInfo: compound 100 µM; 0.01% Triton X-100, no Tween-20; 10 min preincubation
endpoint: % ZIKV NS2B/NS3pro Inhibition (100 µM) 0.01% Triton (%)

molecule="COc1cccc2nc(C(=O)c3ccccc3NS(=O)(=O)c3ccc(F)c(C)c3)[nH]c12 [Compound 12]" reportedresult=5
molecule="Cc1ccc(S(=O)(=O)Nc2ccccc2C(=O)Nc2nc3ccccc3[nH]2)cc1 [Compound 7]" reportedresult=12
molecule="O=C(Nc1nc2cnccc2[nH]1)c1ccccc1NS(=O)(=O)c1ccc(Cl)cc1 [Compound 4]" reportedresult=25
molecule="O=C(Nc1nc2ccccc2[nH]1)c1ccccc1NS(=O)(=O)c1ccc(Cl)cc1 [Compound 6]" reportedresult=7
molecule="O=C(Nc1nc2cccc(Cl)c2[nH]1)c1ccccc1NS(=O)(=O)c1ccc(F)cc1 [Compound 5]" reportedresult=6
molecule="O=C(Nc1nc2cccnc2[nH]1)c1ccccc1NS(=O)(=O)c1ccc(F)cc1 [Compound 2]" reportedresult=30
molecule="Cc1cc(C(=O)c2ccccc2NS(=O)(=O)c2ccc(F)cc2)nn1-c1ccccc1 [Compound 13]" reportedresult=45
molecule="O=C(Nc1nc2cccnc2[nH]1)c1ccccc1NS(=O)(=O)c1ccc(Cl)cc1 [Compound 1]" reportedresult=47

###

systemUnderTest: ZIKV NS2B-NS3pro (Zika virus, UniProt A0A024B7W1, C1582S/C1645S/R1467A/R1531G)
measurementDescription: ZIKV NS2B-NS3pro inhibitory assay with fluorogenic substrate Bz-Nle-Lys-Lys-Arg-AMC
Type: biochemical
conditionInfo: 0.005% Tween-20; enzyme 0.2 nM; substrate 44 µM; read-out: ZIKV NS2B/NS3pro IC50
pIC50: −log10 of the molar value.
endpoint: pIC50

smilesstr=Cc1cc(C(=O)c2ccccc2NS(=O)(=O)c2ccc(F)cc2)nn1-c1ccccc1 endpoint=pIC50 reportedresult=4.55
smilesstr=COc1cccc2nc(C(=O)c3ccccc3NS(=O)(=O)c3ccc(F)c(C)c3)[nH]c12 endpoint=pIC50 reportedresult=5.30

###

systemUnderTest: ZIKV NS2B-NS3pro (Zika virus, UniProt A0A024B7W1, C1582S/C1645S/R1467A/R1531G)
measurementDescription: ZIKV NS2B-NS3pro inhibitory assay with fluorogenic substrate Bz-Nle-Lys-Lys-Arg-AMC
Assay type: biochemical
conditionInfo: from dose-response curve, replica 1
Listed below: Hill Slope Replica 1 values for each entry.
endpoint: Hill Slope Replica 1

smilesstr=O=C(Nc1nc2cnccc2[nH]1)c1ccccc1NS(=O)(=O)c1ccc(Cl)cc1 systemundertest="ZIKV NS2B-NS3pro (Zika virus, UniProt A0A024B7W1, C1582S/C1645S/R1467A/R1531G)" reportedresult=0.8047
smilesstr=O=C(Nc1nc2cccnc2[nH]1)c1ccccc1NS(=O)(=O)c1ccc(Cl)cc1 systemundertest="ZIKV NS2B-NS3pro (Zika virus, UniProt A0A024B7W1, C1582S/C1645S/R1467A/R1531G)" reportedresult=3.046
smilesstr=Cc1cc(C(=O)c2ccccc2NS(=O)(=O)c2ccc(F)cc2)nn1-c1ccccc1 systemundertest="ZIKV NS2B-NS3pro (Zika virus, UniProt A0A024B7W1, C1582S/C1645S/R1467A/R1531G)" reportedresult=5.057
smilesstr=O=C(Nc1nc2cccnc2[nH]1)c1ccccc1NS(=O)(=O)c1ccc(F)cc1 systemundertest="ZIKV NS2B-NS3pro (Zika virus, UniProt A0A024B7W1, C1582S/C1645S/R1467A/R1531G)" reportedresult=0.731
smilesstr=Cc1ccc(S(=O)(=O)Nc2ccccc2C(=O)Nc2nc3ccccc3[nH]2)cc1 systemundertest="ZIKV NS2B-NS3pro (Zika virus, UniProt A0A024B7W1, C1582S/C1645S/R1467A/R1531G)" reportedresult=2.014
smilesstr=COc1cccc2nc(C(=O)c3ccccc3NS(=O)(=O)c3ccc(F)c(C)c3)[nH]c12 systemundertest="ZIKV NS2B-NS3pro (Zika virus, UniProt A0A024B7W1, C1582S/C1645S/R1467A/R1531G)" reportedresult=1.517
smilesstr=O=C(Nc1nc2ccccc2[nH]1)c1ccccc1NS(=O)(=O)c1ccc(Cl)cc1 systemundertest="ZIKV NS2B-NS3pro (Zika virus, UniProt A0A024B7W1, C1582S/C1645S/R1467A/R1531G)" reportedresult=6.697
smilesstr=O=C(Nc1nc2cccc(Cl)c2[nH]1)c1ccccc1NS(=O)(=O)c1ccc(F)cc1 systemundertest="ZIKV NS2B-NS3pro (Zika virus, UniProt A0A024B7W1, C1582S/C1645S/R1467A/R1531G)" reportedresult=3.333

###

Test system: Vero (ATCC CCL-81) cell line
measurementDescription: Cytotoxicity MTT assay (CC50)
conditionInfo: Vero cells; compound 12.5 µM
Listed below: Cell viability as percentage of cell control (mean absorbance / CELL) values for each entry.
endpoint: Cell viability as percentage of cell control (mean absorbance / CELL)

smilesstr=O=C(Nc1nc2cccc(Cl)c2[nH]1)c1ccccc1NS(=O)(=O)c1ccc(F)cc1 systemundertest="Vero (ATCC CCL-81) cell line" reportedresult=44.8735
smilesstr=O=C(Nc1nc2cccnc2[nH]1)c1ccccc1NS(=O)(=O)c1ccc(Cl)cc1 systemundertest="Vero (ATCC CCL-81) cell line" reportedresult=61.7079
smilesstr=Cc1cc(C(=O)c2ccccc2NS(=O)(=O)c2ccc(F)cc2)nn1-c1ccccc1 systemundertest="Vero (ATCC CCL-81) cell line" reportedresult=41.6898
smilesstr=O=C(Nc1nc2cnccc2[nH]1)c1ccccc1NS(=O)(=O)c1ccc(F)cc1 systemundertest="Vero (ATCC CCL-81) cell line" reportedresult=86.7535
smilesstr=COc1cccc2sc(NC(=O)c3ccccc3CS(=O)(=O)c3ccccc3)nc12 systemundertest="Vero (ATCC CCL-81) cell line" reportedresult=57.338
smilesstr=O=C(Nc1nc2cnccc2[nH]1)c1ccccc1NS(=O)(=O)c1ccc(Cl)cc1 systemundertest="Vero (ATCC CCL-81) cell line" reportedresult=84.584
smilesstr=COc1cccc2nc(C(=O)c3ccccc3NS(=O)(=O)c3ccc(F)c(C)c3)[nH]c12 systemundertest="Vero (ATCC CCL-81) cell line" reportedresult=28.1944
smilesstr=Cc1ccc(S(=O)(=O)Nc2ccccc2C(=O)Nc2nc3ccccc3[nH]2)cc1 systemundertest="Vero (ATCC CCL-81) cell line" reportedresult=64.4267
smilesstr=O=C(Nc1nc2cccnc2[nH]1)c1ccccc1NS(=O)(=O)c1ccc(F)cc1 systemundertest="Vero (ATCC CCL-81) cell line" reportedresult=77.4987
smilesstr=O=C(Nc1nc2ccccc2[nH]1)c1ccccc1NS(=O)(=O)c1ccc(Cl)cc1 systemundertest="Vero (ATCC CCL-81) cell line" reportedresult=63.7676

###

measurementDescription: Cytotoxicity MTT assay (CC50)
conditionInfo: African green monkey, Vero (ATCC CCL-81) cells
Listed below: CC50 at 72 h values for each entry.
endpoint: CC50 at 72 h (µM)

smilesstr=O=C(Nc1nc2cccc(Cl)c2[nH]1)c1ccccc1NS(=O)(=O)c1ccc(F)cc1 resultmodifier=< reportedresult=12.5
smilesstr=COc1cccc2nc(C(=O)c3ccccc3NS(=O)(=O)c3ccc(F)c(C)c3)[nH]c12 resultmodifier=< reportedresult=12.5
smilesstr=COc1cccc2sc(NC(=O)c3ccccc3CS(=O)(=O)c3ccccc3)nc12 resultmodifier== reportedresult=23.6
smilesstr=Cc1ccc(S(=O)(=O)Nc2ccccc2C(=O)Nc2nc3ccccc3[nH]2)cc1 resultmodifier== reportedresult=32.8
smilesstr=Cc1cc(C(=O)c2ccccc2NS(=O)(=O)c2ccc(F)cc2)nn1-c1ccccc1 resultmodifier=< reportedresult=12.5
smilesstr=O=C(Nc1nc2cnccc2[nH]1)c1ccccc1NS(=O)(=O)c1ccc(F)cc1 resultmodifier== reportedresult=120
smilesstr=O=C(Nc1nc2cnccc2[nH]1)c1ccccc1NS(=O)(=O)c1ccc(Cl)cc1 resultmodifier== reportedresult=57.1
smilesstr=O=C(Nc1nc2ccccc2[nH]1)c1ccccc1NS(=O)(=O)c1ccc(Cl)cc1 resultmodifier== reportedresult=38.4
smilesstr=O=C(Nc1nc2cccnc2[nH]1)c1ccccc1NS(=O)(=O)c1ccc(Cl)cc1 resultmodifier== reportedresult=22
smilesstr=O=C(Nc1nc2cccnc2[nH]1)c1ccccc1NS(=O)(=O)c1ccc(F)cc1 resultmodifier== reportedresult=32.5

###

Test system: Vero (ATCC CCL-81) cell line
measurementDescription: Cytotoxicity MTT assay (CC50)
conditionInfo: Vero cells; compound 50 µM
Listed below: Cell viability as percentage of cell control (mean absorbance / CELL) values for each entry.
endpoint: Cell viability as percentage of cell control (mean absorbance / CELL)

smilesstr=COc1cccc2nc(C(=O)c3ccccc3NS(=O)(=O)c3ccc(F)c(C)c3)[nH]c12 reportedresult=9.861
smilesstr=O=C(Nc1nc2cccnc2[nH]1)c1ccccc1NS(=O)(=O)c1ccc(F)cc1 reportedresult=30.8677
smilesstr=O=C(Nc1nc2cccnc2[nH]1)c1ccccc1NS(=O)(=O)c1ccc(Cl)cc1 reportedresult=24.3591
smilesstr=O=C(Nc1nc2cnccc2[nH]1)c1ccccc1NS(=O)(=O)c1ccc(Cl)cc1 reportedresult=49.8167
smilesstr=O=C(Nc1nc2ccccc2[nH]1)c1ccccc1NS(=O)(=O)c1ccc(Cl)cc1 reportedresult=41.6329
smilesstr=COc1cccc2sc(NC(=O)c3ccccc3CS(=O)(=O)c3ccccc3)nc12 reportedresult=21.2269
